# Target desc: HLA-A*3101 (human)
# Procedure details: competition with 125I probe peptide, purified HLA
# Condition info: remark: other sources report otherwise
pIC50: −log10 of the molar value.
Readout label: pIC50

{"Binder": "YVFPVIFSR [MAGE3.138.V2R …]", "pIC50": 8.22}

1. ALIETSYVK [MAGE2.277 9-mer …]
2. TVINYTLWK [MAGE2.73.V2K9 …]
Q: Form: Entry with minimum pIC50 (choose one): 1 / 2 Write the label of whichever entry you select.
Ans: 2

These data points were gathered from patent US20040053822A1.
